variants and their reported Kd
B1: GFP aptamer (parent)
chain: GCUUCUGGACUGCGAUGGGAGCACGAAACGUCGUGGCGCAAUUGGGUGGGGAAAGUCCUUAAAAGAGGGCCACCACAGAAGC

Variants of: B1
Assay protocol: HiTS-RAP
Run parameters: with EGFP
Provide the reading as a plain figure in nM.

{"Variant identifier": "A41G C74U", "Kd (nM)": 5.07}
{"Variant identifier": "G67U", "Kd (nM)": 9.04}
{"Variant identifier": "A41U", "Kd (nM)": 4.87}

// next entry
Value of measured Kd for the entry A27G A75G : 5.08
